Test system: Avian myeloblastosis virus
Test method notes: Inhibition of AMV reverse transcriptase activity assessed as incorporation of dGMP in poly(rC)-oligo(dG) at 1000 uM
Set-up: scale not given: the % may be the effect or the level left
Cut-off 4% on Activity: below means Yes, at or above means No.

Criterion: Activity strictly below 4%. Is it met by O=C(O[C@@H]1O[C@@H]2COC(=O)c3cc(O)c(O)c(O)c3-c3c(cc(O)c(O)c3O)C(=O)O[C@H]([C@H]1O)[C@@H]2O)c1cc(O)c(O)c(O)c1 ?
Yes

Criterion: Activity strictly below 4%. Is it met by COc1cc2c[n+](C)c3c4cc5c(cc4ccc3c2cc1OC)OCO5 ?
Yes

Criterion: Activity strictly below 4%. Is it met by O=C(O)C[C@H]1C(=O)O[C@H]2[C@H](OC(=O)c3cc(O)c(O)c(O)c3)[C@@H](OC(=O)c3cc(O)c(O)c4c3[C@H]1[C@H](O)C(=O)O4)[C@H](OC(=O)c1cc(O)c(O)c(O)c1)O[C@@H]2COC(=O)c1cc(O)c(O)c(O)c1 ?
Yes

Criterion: Activity strictly below 4%. Is it met by O=c1oc2c(O)c(O)cc3c(=O)oc4c(O)c(O)cc1c4c23 ?
Yes

Criterion: Activity strictly below 4%. Is it met by O=C(O)c1cc(O)c(O)c(O)c1 ?
No

Criterion: Activity strictly below 4%. Is it met by O=C1OC[C@H]2O[C@@H](O)[C@H](O)[C@@H](O)[C@@H]2OC(=O)c2cc(O)c(O)c(O)c2-c2c(O)c(O)c3oc(=O)c4c(c(O)c(O)c5oc(=O)c2c3c54)-c2c1cc(O)c(O)c2O ?
No
